Data provenance: patent US6943191B1

target: p210^bcr-abl (Homo sapiens); construct: immune complexes containing ^32P-labeled p210^bcr-abl were collected on protein Sepharose beads; BCR (N-terminal part of the breakpoint cluster region protein, natural fusion partner); endogenous in cells; host or cells: K562 cells (lysate, immunoprecipitated on Protein A-Sepharose); the other entry of the earlier key: BCR (P11274, Breakpoint cluster region protein); experiment: Inhibition of in vitro auto-phosphorylation of p210^bcr-abl, immune-complex kinase assay; type: biochemical; conditions: Table 9; immune complex kinase assay; mean ± S.E., 3 experiments; read-out: Enzyme Assays IC50 (μM) p210bcl-abl in vitro phosphorylation
Sequence (P00519 with tags, fused parts or gaps): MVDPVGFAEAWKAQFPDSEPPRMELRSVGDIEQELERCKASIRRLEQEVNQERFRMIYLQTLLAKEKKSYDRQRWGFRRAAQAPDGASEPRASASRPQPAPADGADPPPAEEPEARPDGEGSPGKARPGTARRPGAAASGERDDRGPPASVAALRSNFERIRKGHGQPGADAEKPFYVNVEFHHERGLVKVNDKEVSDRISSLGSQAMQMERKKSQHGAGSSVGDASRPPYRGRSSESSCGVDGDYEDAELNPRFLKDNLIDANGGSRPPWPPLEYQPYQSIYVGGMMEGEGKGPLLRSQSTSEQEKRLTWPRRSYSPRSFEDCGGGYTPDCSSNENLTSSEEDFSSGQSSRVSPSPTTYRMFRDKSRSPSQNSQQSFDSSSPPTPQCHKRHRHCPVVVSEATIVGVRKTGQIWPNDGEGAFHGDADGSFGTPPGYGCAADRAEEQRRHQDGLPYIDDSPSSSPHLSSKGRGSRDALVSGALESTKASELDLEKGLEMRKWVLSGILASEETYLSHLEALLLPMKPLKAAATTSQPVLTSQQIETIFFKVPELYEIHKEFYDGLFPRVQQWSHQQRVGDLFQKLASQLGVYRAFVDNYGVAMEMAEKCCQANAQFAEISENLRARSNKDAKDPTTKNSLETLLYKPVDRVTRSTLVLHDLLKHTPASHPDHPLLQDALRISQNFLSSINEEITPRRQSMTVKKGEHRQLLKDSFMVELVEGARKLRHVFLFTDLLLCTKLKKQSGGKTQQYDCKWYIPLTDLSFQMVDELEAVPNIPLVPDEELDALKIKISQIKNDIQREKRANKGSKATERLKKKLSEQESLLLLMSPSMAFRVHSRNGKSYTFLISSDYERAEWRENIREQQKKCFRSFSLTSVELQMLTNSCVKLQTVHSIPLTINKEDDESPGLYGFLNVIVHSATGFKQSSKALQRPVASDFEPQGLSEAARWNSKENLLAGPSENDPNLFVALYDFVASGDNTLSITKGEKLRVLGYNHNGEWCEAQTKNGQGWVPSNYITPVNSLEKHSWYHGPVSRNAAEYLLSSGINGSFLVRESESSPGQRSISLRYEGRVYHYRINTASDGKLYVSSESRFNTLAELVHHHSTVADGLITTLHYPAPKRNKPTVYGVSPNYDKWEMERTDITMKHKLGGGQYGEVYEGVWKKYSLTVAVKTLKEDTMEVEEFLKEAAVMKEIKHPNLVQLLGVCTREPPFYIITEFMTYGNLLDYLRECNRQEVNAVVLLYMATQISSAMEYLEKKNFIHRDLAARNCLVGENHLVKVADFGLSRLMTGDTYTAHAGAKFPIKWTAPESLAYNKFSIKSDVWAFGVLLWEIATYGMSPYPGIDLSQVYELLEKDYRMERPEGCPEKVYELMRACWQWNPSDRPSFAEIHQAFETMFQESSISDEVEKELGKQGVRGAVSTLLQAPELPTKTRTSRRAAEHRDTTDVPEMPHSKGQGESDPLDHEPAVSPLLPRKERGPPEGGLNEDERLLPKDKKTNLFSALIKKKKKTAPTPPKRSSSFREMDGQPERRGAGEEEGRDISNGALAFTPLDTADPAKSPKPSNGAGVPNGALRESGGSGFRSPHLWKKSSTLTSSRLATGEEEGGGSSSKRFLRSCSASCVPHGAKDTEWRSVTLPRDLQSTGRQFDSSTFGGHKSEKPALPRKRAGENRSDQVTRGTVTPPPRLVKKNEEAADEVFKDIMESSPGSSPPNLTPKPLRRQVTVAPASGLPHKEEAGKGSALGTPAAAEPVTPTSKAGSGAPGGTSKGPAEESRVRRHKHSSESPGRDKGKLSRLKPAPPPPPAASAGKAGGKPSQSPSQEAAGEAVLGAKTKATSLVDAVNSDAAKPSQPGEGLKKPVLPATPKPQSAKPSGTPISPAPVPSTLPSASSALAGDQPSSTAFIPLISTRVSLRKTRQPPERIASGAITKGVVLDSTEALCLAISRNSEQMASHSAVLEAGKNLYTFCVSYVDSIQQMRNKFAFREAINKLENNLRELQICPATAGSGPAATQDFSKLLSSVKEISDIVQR
measured_parameter: IC50 (µM)
# output: bare number, implied unit µM

Provide measured IC50 value, entry: `O=C1C=CC(=O)C(CNc2ccc(C(=O)OC34CC5CC(CC(C5)C3)C4)cc2)=C1Br`
2.38
